tested on: ATP; assay: switch fluorescence ratio, 500 uM ATP over buffer (Cy3 cluster intensity, sum of 5 cycles each) (fold (ratio)); higher = stronger signal-on switching upon ATP binding; sequences stand for … in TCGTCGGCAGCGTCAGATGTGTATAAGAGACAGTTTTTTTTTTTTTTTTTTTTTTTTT…TC; conditions: aptamer strand: ATP DNA aptamer (quencher-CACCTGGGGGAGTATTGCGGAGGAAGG + anchor), 100 nM annealed; ATP concentration: 500 uM;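 also: ATP exposure 15 min at 22 °C before imaging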
Below, each of the sequences is paired with its reported switch fluorescence ratio value.

>  <INPUT_SEQUENCE>
CGTCTGCGCG

>  <switch fluorescence ratio>
0.972

$$$$
>  <INPUT_SEQUENCE>
GGAGGGCGTG

>  <switch fluorescence ratio>
0.988

$$$$
>  <INPUT_SEQUENCE>
AGGGAAAGTC

>  <switch fluorescence ratio>
0.985

$$$$
>  <INPUT_SEQUENCE>
CGAATAGGCT

>  <switch fluorescence ratio>
1.01

$$$$
>  <INPUT_SEQUENCE>
TTGGGAAGTA

>  <switch fluorescence ratio>
0.985

$$$$
>  <INPUT_SEQUENCE>
TTAATAGTGG

>  <switch fluorescence ratio>
1.03

$$$$
>  <INPUT_SEQUENCE>
TAGGGTTTGT

>  <switch fluorescence ratio>
0.989

$$$$
>  <INPUT_SEQUENCE>
TACGTGGTTG

>  <switch fluorescence ratio>
0.99

$$$$
>  <INPUT_SEQUENCE>
CGTCAGGCAT

>  <switch fluorescence ratio>
1.17

$$$$
>  <INPUT_SEQUENCE>
AGAATTTAAA

>  <switch fluorescence ratio>
0.992

$$$$
>  <INPUT_SEQUENCE>
GGATAACGTA

>  <switch fluorescence ratio>
1.01

$$$$
>  <INPUT_SEQUENCE>
GATTTTCTTG

>  <switch fluorescence ratio>
1.03

$$$$
>  <INPUT_SEQUENCE>
TGCGTAGTTA

>  <switch fluorescence ratio>
0.987

$$$$
>  <INPUT_SEQUENCE>
TATAGTATTT

>  <switch fluorescence ratio>
0.984

$$$$
>  <INPUT_SEQUENCE>
CGAGTAGCGG

>  <switch fluorescence ratio>
1.01

$$$$

====

Below, each of the sequences is paired with its reported switch fluorescence ratio value.
test system: ATP; test: switch fluorescence ratio, 500 uM ATP over buffer (Cy3 cluster intensity, sum of 5 cycles each) (fold (ratio)); higher = stronger signal-on switching upon ATP binding; sequences stand for … in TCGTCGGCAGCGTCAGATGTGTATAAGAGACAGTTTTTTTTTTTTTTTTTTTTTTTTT…TC; conditions: aptamer strand: ATP DNA aptamer (quencher-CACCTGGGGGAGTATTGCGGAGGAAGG + anchor), 100 nM annealed; ATP concentration: 500 uM;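 also: ATP exposure 15 min at 22 °C before imaging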

>  <INPUT_SEQUENCE>
GTCGGGGGTG

>  <ASSAYED_TARGET>
ATP;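 also: ATP exposure 15 min at 22 °C before imaging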

>  <switch fluorescence ratio>
0.983

$$$$
>  <INPUT_SEQUENCE>
TGTTTTAGGG

>  <ASSAYED_TARGET>
ATP;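 also: ATP exposure 15 min at 22 °C before imaging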

>  <switch fluorescence ratio>
0.993

$$$$
>  <INPUT_SEQUENCE>
CTGTGCCAAG

>  <ASSAYED_TARGET>
ATP;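 also: ATP exposure 15 min at 22 °C before imaging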

>  <switch fluorescence ratio>
1

$$$$
>  <INPUT_SEQUENCE>
GTTTAAATCC

>  <ASSAYED_TARGET>
ATP;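 also: ATP exposure 15 min at 22 °C before imaging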

>  <switch fluorescence ratio>
0.989

$$$$
>  <INPUT_SEQUENCE>
TGAAGAATGT

>  <ASSAYED_TARGET>
ATP;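 also: ATP exposure 15 min at 22 °C before imaging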

>  <switch fluorescence ratio>
1.02

$$$$

====

Below, each of the sequences is paired with its reported switch fluorescence ratio value.
tested on: ATP; assay: switch fluorescence ratio, 500 uM ATP over buffer (Cy3 cluster intensity, sum of 5 cycles each) (fold (ratio)); higher = stronger signal-on switching upon ATP binding; sequences stand for … in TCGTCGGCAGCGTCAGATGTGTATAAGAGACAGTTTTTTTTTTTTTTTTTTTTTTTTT…TC; conditions: aptamer strand: ATP DNA aptamer (quencher-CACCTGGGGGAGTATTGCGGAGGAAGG + anchor), 100 nM annealed; ATP concentration: 500 uM;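 also: ATP exposure 15 min at 22 °C before imaging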

>  <INPUT_SEQUENCE>
AAATGGTTGT

>  <ASSAYED_TARGET>
ATP;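 also: ATP exposure 15 min at 22 °C before imaging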

>  <switch fluorescence ratio>
1.01

$$$$
>  <INPUT_SEQUENCE>
AAAACCAGCG

>  <ASSAYED_TARGET>
ATP;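 also: ATP exposure 15 min at 22 °C before imaging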

>  <switch fluorescence ratio>
1.03

$$$$
>  <INPUT_SEQUENCE>
GCGAATAAGT

>  <ASSAYED_TARGET>
ATP;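 also: ATP exposure 15 min at 22 °C before imaging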

>  <switch fluorescence ratio>
1.02

$$$$
>  <INPUT_SEQUENCE>
GCCTTTTGCC

>  <ASSAYED_TARGET>
ATP;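 also: ATP exposure 15 min at 22 °C before imaging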

>  <switch fluorescence ratio>
1.04

$$$$
>  <INPUT_SEQUENCE>
AGTCCTCGGC

>  <ASSAYED_TARGET>
ATP;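 also: ATP exposure 15 min at 22 °C before imaging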

>  <switch fluorescence ratio>
1.13

$$$$
>  <INPUT_SEQUENCE>
TAATGTTTTT

>  <ASSAYED_TARGET>
ATP;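 also: ATP exposure 15 min at 22 °C before imaging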

>  <switch fluorescence ratio>
0.985

$$$$
>  <INPUT_SEQUENCE>
TTGTTAAATA

>  <ASSAYED_TARGET>
ATP;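 also: ATP exposure 15 min at 22 °C before imaging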

>  <switch fluorescence ratio>
0.98

$$$$
>  <INPUT_SEQUENCE>
TTTCGGAAAG

>  <ASSAYED_TARGET>
ATP;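 also: ATP exposure 15 min at 22 °C before imaging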

>  <switch fluorescence ratio>
0.967

$$$$
>  <INPUT_SEQUENCE>
CCGTTAGTAA

>  <ASSAYED_TARGET>
ATP;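 also: ATP exposure 15 min at 22 °C before imaging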

>  <switch fluorescence ratio>
3.13

$$$$
>  <INPUT_SEQUENCE>
AGTATCGTGC

>  <ASSAYED_TARGET>
ATP;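 also: ATP exposure 15 min at 22 °C before imaging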

>  <switch fluorescence ratio>
0.997

$$$$
>  <INPUT_SEQUENCE>
GTGAAAAATT

>  <ASSAYED_TARGET>
ATP;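 also: ATP exposure 15 min at 22 °C before imaging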

>  <switch fluorescence ratio>
0.986

$$$$
>  <INPUT_SEQUENCE>
CAATATAGGT

>  <ASSAYED_TARGET>
ATP;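 also: ATP exposure 15 min at 22 °C before imaging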

>  <switch fluorescence ratio>
0.967

$$$$
>  <INPUT_SEQUENCE>
ATCCGGTTTG

>  <ASSAYED_TARGET>
ATP;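 also: ATP exposure 15 min at 22 °C before imaging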

>  <switch fluorescence ratio>
0.982

$$$$

====

Below, each of the sequences is paired with its reported switch fluorescence ratio value.
tested on: ATP; assay: switch fluorescence ratio, 500 uM ATP over buffer (Cy3 cluster intensity, sum of 5 cycles each) (fold (ratio)); higher = stronger signal-on switching upon ATP binding; sequences stand for … in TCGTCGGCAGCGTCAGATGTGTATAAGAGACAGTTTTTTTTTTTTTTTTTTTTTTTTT…TC; conditions: aptamer strand: ATP DNA aptamer (quencher-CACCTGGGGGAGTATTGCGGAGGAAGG + anchor), 100 nM annealed; ATP concentration: 500 uM;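 also: ATP exposure 15 min at 22 °C before imaging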
MEASURED_PROPERTY: switch fluorescence ratio

>  <INPUT_SEQUENCE>
GGAAATGAGT

>  <ASSAYED_TARGET>
ATP;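 also: ATP exposure 15 min at 22 °C before imaging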

>  <RESULT>
1.02

$$$$
>  <INPUT_SEQUENCE>
TTCGGCAACG

>  <ASSAYED_TARGET>
ATP;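 also: ATP exposure 15 min at 22 °C before imaging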

>  <RESULT>
0.997

$$$$
>  <INPUT_SEQUENCE>
AAACACGTTG

>  <ASSAYED_TARGET>
ATP;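 also: ATP exposure 15 min at 22 °C before imaging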

>  <RESULT>
1.02

$$$$
>  <INPUT_SEQUENCE>
CCTAAAGGCT

>  <ASSAYED_TARGET>
ATP;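 also: ATP exposure 15 min at 22 °C before imaging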

>  <RESULT>
1.02

$$$$
>  <INPUT_SEQUENCE>
ATTATGTCTT

>  <ASSAYED_TARGET>
ATP;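 also: ATP exposure 15 min at 22 °C before imaging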

>  <RESULT>
0.988

$$$$
>  <INPUT_SEQUENCE>
GGGGAGTTTG

>  <ASSAYED_TARGET>
ATP;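 also: ATP exposure 15 min at 22 °C before imaging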

>  <RESULT>
1.01

$$$$
>  <INPUT_SEQUENCE>
AAGGTATTGC

>  <ASSAYED_TARGET>
ATP;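 also: ATP exposure 15 min at 22 °C before imaging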

>  <RESULT>
0.995

$$$$
>  <INPUT_SEQUENCE>
TTGGTAGAAA

>  <ASSAYED_TARGET>
ATP;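 also: ATP exposure 15 min at 22 °C before imaging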

>  <RESULT>
0.982

$$$$
>  <INPUT_SEQUENCE>
GAGGGGCGCG

>  <ASSAYED_TARGET>
ATP;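 also: ATP exposure 15 min at 22 °C before imaging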

>  <RESULT>
0.997

$$$$
>  <INPUT_SEQUENCE>
AAAAACAACT

>  <ASSAYED_TARGET>
ATP;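 also: ATP exposure 15 min at 22 °C before imaging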

>  <RESULT>
1.02

$$$$
>  <INPUT_SEQUENCE>
GGATATCGAG

>  <ASSAYED_TARGET>
ATP;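 also: ATP exposure 15 min at 22 °C before imaging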

>  <RESULT>
0.998

$$$$
>  <INPUT_SEQUENCE>
AGTCCAAGAG

>  <ASSAYED_TARGET>
ATP;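 also: ATP exposure 15 min at 22 °C before imaging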

>  <RESULT>
0.989

$$$$
>  <INPUT_SEQUENCE>
CTCAGGCTTG

>  <ASSAYED_TARGET>
ATP;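 also: ATP exposure 15 min at 22 °C before imaging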

>  <RESULT>
0.997

$$$$
>  <INPUT_SEQUENCE>
ACTATGTAGG

>  <ASSAYED_TARGET>
ATP;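 also: ATP exposure 15 min at 22 °C before imaging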

>  <RESULT>
0.979

$$$$
>  <INPUT_SEQUENCE>
CTCGTGGCGG

>  <ASSAYED_TARGET>
ATP;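 also: ATP exposure 15 min at 22 °C before imaging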

>  <RESULT>
1.02

$$$$
>  <INPUT_SEQUENCE>
CAATCCTGGG

>  <ASSAYED_TARGET>
ATP;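 also: ATP exposure 15 min at 22 °C before imaging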

>  <RESULT>
0.989

$$$$
>  <INPUT_SEQUENCE>
TATTAAGGGA

>  <ASSAYED_TARGET>
ATP;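 also: ATP exposure 15 min at 22 °C before imaging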

>  <RESULT>
0.995

$$$$
>  <INPUT_SEQUENCE>
TATGAGGGGG

>  <ASSAYED_TARGET>
ATP;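 also: ATP exposure 15 min at 22 °C before imaging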

>  <RESULT>
1.02

$$$$
>  <INPUT_SEQUENCE>
GATTTTTGTG

>  <ASSAYED_TARGET>
ATP;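 also: ATP exposure 15 min at 22 °C before imaging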

>  <RESULT>
0.992

$$$$
>  <INPUT_SEQUENCE>
GGGACTTTTG

>  <ASSAYED_TARGET>
ATP;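 also: ATP exposure 15 min at 22 °C before imaging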

>  <RESULT>
0.986

$$$$
>  <INPUT_SEQUENCE>
GTGTTCAAGG

>  <ASSAYED_TARGET>
ATP;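 also: ATP exposure 15 min at 22 °C before imaging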

>  <RESULT>
0.971

$$$$
>  <INPUT_SEQUENCE>
TGCCGATCAG

>  <ASSAYED_TARGET>
ATP;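 also: ATP exposure 15 min at 22 °C before imaging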

>  <RESULT>
0.993

$$$$
>  <INPUT_SEQUENCE>
TGGCGATTGG

>  <ASSAYED_TARGET>
ATP;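 also: ATP exposure 15 min at 22 °C before imaging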

>  <RESULT>
0.985

$$$$
>  <INPUT_SEQUENCE>
TGGCAGTAAA

>  <ASSAYED_TARGET>
ATP;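 also: ATP exposure 15 min at 22 °C before imaging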

>  <RESULT>
1.02

$$$$
